molecular target: Calmodulin-1 (Homo sapiens) (UniProt P0DP23); assay: small molecules binding calmodulin-1 with EGTA – biochemical, small-molecule microarray, Cy5-labelled CALM1, profiling panel (AID 1111); details: Cy5-CALM1 binding fluorescence, higher = more signal;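 note: labelled calmodulin applied in Tris saline Tween buffer holding calcium plus EGTA and DTT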
ASSAY_METRIC: composite z-score
Form field (numeric): enter value without unit.

MOLECULE	TGT	ASSAY_METRIC	REPORTED_VALUE
NC(=O)NCC#Cc1ccc2c(c1)[C@]1(C(=O)N2)[C@H](C(=O)NC[C@H](O)c2ccccc2)[C@H]2C(=O)O[C@H](c3ccccc3)[C@H](c3ccccc3)N2[C@@H]1c1ccccc1OCCO	Calmodulin-1 (Homo sapiens) (UniProt P0DP23)	composite z-score	0.103
O=P(NCC1(CC2(c3ccccc3)CO2)CC1)(c1ccccc1)c1ccccc1 (configuration not stated)	Calmodulin-1 (Homo sapiens) (UniProt P0DP23)	composite z-score	-0.0905
C=C(C(=O)CC[C@@H](OC(=O)c1cccnc1)c1ccc(CO)o1)C(C)C	Calmodulin-1 (Homo sapiens) (UniProt P0DP23)	composite z-score	-0.478
NC(=O)[C@@]1(CCS(=O)(=O)c2ccccc2)N=C(c2ccc(OCCCO)cc2)O[C@H]1c1ccccc1	Calmodulin-1 (Homo sapiens) (UniProt P0DP23)	composite z-score	1.37
CCOC(=O)C[C@H]1[C@H](OC(=O)c2cc3ccccc3oc2=O)[C@@H](NC(=O)c2ccc3ccccc3c2)c2cc(OCCCO)ccc2N1C(=O)c1ccccc1	Calmodulin-1 (Homo sapiens) (UniProt P0DP23)	composite z-score	-0.0786
COC(=O)[C@@]1(Cc2ccc(OC)cc2)[C@H]2c3cc(C(=O)N4CCCC4)n(CCN4CCOCC4)c3C[C@H]2CN1C(=O)c1ccccc1	Calmodulin-1 (Homo sapiens) (UniProt P0DP23)	composite z-score	1.55

Turning now to a further record.
query: Return composite z-score measured with Calmodulin-1 (Homo sapiens) (UniProt P0DP23) given this molecule: O=C(CS)NCCCCCNC(=O)[C@H]1C[C@H]2C(=O)N[C@@H](Cc3ccccc3)C(=O)N2[C@H]1c1cccc(OCCO)c1
result: -0.137
